# assay: Cytotoxicity against human WI38 cells assessed as cell viability at 0.01 uM after 48 hrs by SRB assay
# Assay type: cell-based, WI-38
# reported_conditions: read-out: Activity
assay_readout: viability at 48 h, 0.01 µM (%)
Number only, in %; omit the unit.

Known viability at 48 h, 0.01 µM results, listed for orientation:
substance_smiles: O=S1(=O)C[C@@H]2[C@@H](OCc3ccccc3)[C@H](OCc3ccccc3)[C@@H](COCc3ccccc3)O[C@@H]2c2ccccc21
viability at 48 h, 0.01 µM (%): 97.8

substance_smiles: Cc1cccc2c1[S@+]([O-])C[C@@H]1[C@@H](OCc3ccccc3)[C@H](OCc3ccccc3)[C@@H](COCc3ccccc3)O[C@H]21
viability at 48 h, 0.01 µM (%): 101

substance_smiles: CC(C)(C)c1ccc2c(c1)[C@H]1O[C@H](COCc3ccccc3)[C@@H](OCc3ccccc3)[C@H](OCc3ccccc3)[C@H]1C[S@+]2[O-]
viability at 48 h, 0.01 µM (%): 102

substance_smiles: CC(C)(C)c1ccc2c(c1)[C@H]1O[C@H](COCc3ccccc3)[C@@H](OCc3ccccc3)[C@H](OCc3ccccc3)[C@H]1C[S@@+]2[O-]
viability at 48 h, 0.01 µM (%): 100

substance_smiles: COc1ccc2c(c1)[C@H]1O[C@H](COCc3ccccc3)[C@@H](OCc3ccccc3)[C@H](OCc3ccccc3)[C@H]1C[S@@+]2[O-]
viability at 48 h, 0.01 µM (%): 97.4

Given `COc1ccc2c(c1)[C@H]1O[C@H](COCc3ccccc3)[C@@H](OCc3ccccc3)[C@H](OCc3ccccc3)[C@H]1C[S@+]2[O-]` , state its recorded viability at 48 h, 0.01 µM.
99.8

* * *

# assay: Cytotoxicity against human WI38 cells assessed as cell viability at 1 uM after 48 hrs by SRB assay
# Assay type: cell-based, WI-38
# reported_conditions: read-out: Activity
assay_readout: viability at 48 h, 1 µM (%)
Number only, in %; omit the unit.

substance_smiles: Cc1ccc2c(c1)[C@H]1O[C@H](COCc3ccccc3)[C@@H](OCc3ccccc3)[C@H](OCc3ccccc3)[C@H]1C[S@+]2[O-]
assay_readout: viability at 48 h, 1 µM
assay_result: 99.1
--
substance_smiles: COc1ccc2c(c1)[C@H]1O[C@H](COCc3ccccc3)[C@@H](OCc3ccccc3)[C@H](OCc3ccccc3)[C@H]1C[S@@+]2[O-]
assay_readout: viability at 48 h, 1 µM
assay_result: 97.2
--
substance_smiles: CC(C)(C)c1ccc2c(c1)[C@H]1O[C@H](COCc3ccccc3)[C@@H](OCc3ccccc3)[C@H](OCc3ccccc3)[C@H]1CS2(=O)=O
assay_readout: viability at 48 h, 1 µM
assay_result: 92.7

Given `Cc1ccc2c(c1)[C@H]1O[C@H](COCc3ccccc3)[C@@H](OCc3ccccc3)[C@H](OCc3ccccc3)[C@H]1C[S@@+]2[O-]` , state its recorded viability at 48 h, 1 µM.
100

Given `CC(C)(C)c1ccc2c(c1)[C@H]1O[C@H](COCc3ccccc3)[C@@H](OCc3ccccc3)[C@H](OCc3ccccc3)[C@H]1C[S@+]2[O-]` , state its recorded viability at 48 h, 1 µM.
100

Given `c1ccc(COC[C@H]2O[C@@H]3c4ccccc4SC[C@@H]3[C@@H](OCc3ccccc3)[C@@H]2OCc2ccccc2)cc1` , state its recorded viability at 48 h, 1 µM.
97.6

Given `[O-][S@+]1C[C@@H]2[C@@H](OCc3ccccc3)[C@H](OCc3ccccc3)[C@@H](COCc3ccccc3)O[C@@H]2c2c1ccc1ccccc21` , state its recorded viability at 48 h, 1 µM.
96.7

Given `COc1ccc2c(c1)[C@H]1O[C@H](COCc3ccccc3)[C@@H](OCc3ccccc3)[C@H](OCc3ccccc3)[C@H]1CS2` , state its recorded viability at 48 h, 1 µM.
93.8

Given `Cc1cccc2c1[S@@+]([O-])C[C@@H]1[C@@H](OCc3ccccc3)[C@H](OCc3ccccc3)[C@@H](COCc3ccccc3)O[C@H]21` , state its recorded viability at 48 h, 1 µM.
99.2

Given `CC(C)(C)c1ccc2c(c1)[C@H]1O[C@H](COCc3ccccc3)[C@@H](OCc3ccccc3)[C@H](OCc3ccccc3)[C@H]1C[S@@+]2[O-]` , state its recorded viability at 48 h, 1 µM.
97.1

Given `Cc1cccc2c1[S@+]([O-])C[C@@H]1[C@@H](OCc3ccccc3)[C@H](OCc3ccccc3)[C@@H](COCc3ccccc3)O[C@H]21` , state its recorded viability at 48 h, 1 µM.
95.5

Given `Cc1ccc2c(c1)[C@H]1O[C@H](COCc3ccccc3)[C@@H](OCc3ccccc3)[C@H](OCc3ccccc3)[C@H]1CS2` , state its recorded viability at 48 h, 1 µM.
97

Given `COc1ccc2c(c1)[C@H]1O[C@H](COCc3ccccc3)[C@@H](OCc3ccccc3)[C@H](OCc3ccccc3)[C@H]1C[S@+]2[O-]` , state its recorded viability at 48 h, 1 µM.
97.4
